- target: chorismate synthase (CS) (Tetrahymena thermophila)
- Sequence (Q23FV7 entry or part of it): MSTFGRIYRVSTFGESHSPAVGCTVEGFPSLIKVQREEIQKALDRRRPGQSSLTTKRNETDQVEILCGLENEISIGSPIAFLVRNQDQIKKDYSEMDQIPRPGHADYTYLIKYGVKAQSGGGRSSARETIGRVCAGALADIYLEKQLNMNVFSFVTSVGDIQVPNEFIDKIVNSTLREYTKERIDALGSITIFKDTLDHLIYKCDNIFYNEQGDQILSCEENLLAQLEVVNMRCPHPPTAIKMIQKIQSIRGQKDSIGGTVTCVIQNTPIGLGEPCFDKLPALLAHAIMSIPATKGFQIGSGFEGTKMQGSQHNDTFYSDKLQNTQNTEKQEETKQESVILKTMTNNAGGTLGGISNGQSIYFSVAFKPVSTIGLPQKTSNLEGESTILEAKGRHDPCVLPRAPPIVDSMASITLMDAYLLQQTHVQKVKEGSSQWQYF
parameter-measured: pKd
# pKd: negative log10 of molar concentration; output just the value

Look up pKd with chorismate synthase (CS) (Tetrahymena thermophila) for this molecule: Nc1cc(S(=O)(=O)O)cc2cc(S(=O)(=O)O)c(/N=N/c3cc([N+](=O)[O-])cc(Cl)c3O)c(O)c12
5.36

----------
- target: chorismate synthase (CS)
- protocol-description: Spectrophotometric titration, CS from Solanum lycopersicum
- experimental-setup: CS from Solanum lycopersicum (plant)
parameter-measured: Kd (nM)
Write down the numeric answer in nM and omit the unit.

Which measured Kd belongs to Nc1cc(S(=O)(=O)O)cc2cc(S(=O)(=O)O)c(/N=N/c3cc([N+](=O)[O-])cc(Cl)c3O)c(O)c12 [PH011669] , tested on chorismate synthase (CS)?
1800

----------
- target: chorismate synthase (CS) (Botrytis cinerea)
- Sequence (A0A384JF70 entry or part of it): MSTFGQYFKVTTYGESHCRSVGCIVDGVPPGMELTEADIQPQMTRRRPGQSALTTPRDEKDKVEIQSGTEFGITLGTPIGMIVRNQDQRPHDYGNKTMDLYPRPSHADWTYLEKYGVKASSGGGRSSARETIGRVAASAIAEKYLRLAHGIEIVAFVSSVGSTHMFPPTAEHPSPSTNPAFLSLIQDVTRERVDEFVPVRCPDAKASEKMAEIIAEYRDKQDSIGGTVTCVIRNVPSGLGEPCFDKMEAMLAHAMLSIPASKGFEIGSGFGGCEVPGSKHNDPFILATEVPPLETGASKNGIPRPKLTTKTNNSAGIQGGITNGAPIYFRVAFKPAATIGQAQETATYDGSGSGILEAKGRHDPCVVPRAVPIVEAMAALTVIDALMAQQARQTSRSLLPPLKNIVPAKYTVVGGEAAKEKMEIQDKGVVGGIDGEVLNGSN
parameter-measured: pKd
Here pKd is given on a logarithmic scale as minus log10 of the concentration in mol/L.

Fill in: pKd of Nc1cc(S(=O)(=O)O)cc2cc(S(=O)(=O)O)c(/N=N/c3cc([N+](=O)[O-])cc(Cl)c3O)c(O)c12 [PH011669] is ___
5.40

----------
- target: chorismate synthase (CS) (Trichormus variabilis, UniProt Q3MFM3)
- Sequence (Q3MFM3 whole entry): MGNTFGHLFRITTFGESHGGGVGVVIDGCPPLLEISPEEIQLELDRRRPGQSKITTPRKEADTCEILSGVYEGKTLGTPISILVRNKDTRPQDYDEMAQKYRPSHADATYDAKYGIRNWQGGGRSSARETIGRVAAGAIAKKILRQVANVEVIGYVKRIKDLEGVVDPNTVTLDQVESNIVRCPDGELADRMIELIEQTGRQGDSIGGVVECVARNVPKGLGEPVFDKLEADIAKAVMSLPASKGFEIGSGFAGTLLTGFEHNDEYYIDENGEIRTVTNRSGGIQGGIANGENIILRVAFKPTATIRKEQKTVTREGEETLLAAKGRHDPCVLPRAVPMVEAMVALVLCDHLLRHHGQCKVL
parameter-measured: pKd
# pKd = -log10(concentration in molar units)

# query: pKd | item Nc1cc(S(=O)(=O)O)cc2cc(S(=O)(=O)O)c(/N=N/c3cc([N+](=O)[O-])cc(Cl)c3O)c(O)c12 | system: chorismate synthase (CS) (Trichormus variabilis, UniProt Q3MFM3)
5.74

----------
- target: UniProtKB P12008
- Sequence (P12008 whole entry): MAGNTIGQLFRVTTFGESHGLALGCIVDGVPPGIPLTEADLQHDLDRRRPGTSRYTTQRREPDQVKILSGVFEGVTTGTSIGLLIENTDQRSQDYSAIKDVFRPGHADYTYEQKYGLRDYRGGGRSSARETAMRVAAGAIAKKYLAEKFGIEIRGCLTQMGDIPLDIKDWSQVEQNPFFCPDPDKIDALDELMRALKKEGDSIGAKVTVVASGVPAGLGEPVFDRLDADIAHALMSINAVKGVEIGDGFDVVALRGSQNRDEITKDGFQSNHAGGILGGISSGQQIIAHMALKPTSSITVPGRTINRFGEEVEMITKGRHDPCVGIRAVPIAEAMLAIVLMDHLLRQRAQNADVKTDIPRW
parameter-measured: pKd
Bear in mind: pKd is minus log10 of a mol/L concentration; give just that figure.

Report pKd for Nc1cc(S(=O)(=O)O)cc2cc(S(=O)(=O)O)c(/N=N/c3cc([N+](=O)[O-])cc(Cl)c3O)c(O)c12 please.
5.43

Origin of values: paper PMC11633415
